# target or test system: APOL1 G2 (Homo sapiens, UniProt O14791, DEL388-389)
# Construct: expressed in transfected cells; host or cells: HEK293 T-REx clonal line stably expressing GCaMP6f (HEK T-REx/GCaMP6f/APOL1 G2 K6.3), doxycycline induced
# Sequence (O14791 with tags, fused parts or gaps DEL388-389): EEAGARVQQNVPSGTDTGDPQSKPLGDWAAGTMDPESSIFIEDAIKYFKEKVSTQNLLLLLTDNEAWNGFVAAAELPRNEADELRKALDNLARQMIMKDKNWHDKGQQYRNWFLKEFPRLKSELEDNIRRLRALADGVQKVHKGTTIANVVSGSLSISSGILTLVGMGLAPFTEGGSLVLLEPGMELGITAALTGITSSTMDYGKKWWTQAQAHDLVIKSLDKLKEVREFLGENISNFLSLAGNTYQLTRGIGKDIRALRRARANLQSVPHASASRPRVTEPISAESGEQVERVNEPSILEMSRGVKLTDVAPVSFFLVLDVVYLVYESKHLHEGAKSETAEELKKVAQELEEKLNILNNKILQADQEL
# method: APOL1-mediated calcium transport (calcium influx) assay, HEK T-REx/GCaMP6f/APOL1 G2 K6.3 cells, FLIPR TETRA
# Assay type: cell-based
# run parameters: prevention of calcium influx; geometric mean of at least 2 assay runs; † = average of a technical replicate from a single assay run
AC50 for assorted compounds
Output spec: scalar in nM, unitless text.

| compound | target or test system | AC50 [nM] |
| --- | --- | --- |
| CS(=O)(=O)N1CCCc2cc(OCCN3CCC4(CC3)C(=O)Nc3ccc(Cl)cc34)ccc21 [Compound 53] | APOL1 G2 (Homo sapiens, UniProt O14791, DEL388-389) | 838 |

Answer with the recorded AC50 for the compound listed here: COCCN1C(=O)C2(CCN(CCOc3ccc(S(C)(=O)=O)cc3)CC2)c2cc(Cl)ccc21 [Compound 20] 348

Answer with the recorded AC50 for the compound listed here: [2H]C([2H])([2H])N1C(=O)C2(CCN(CCOc3ccc(C4(S(C)(=O)=O)CCC4)cc3)CC2)c2cc(Cl)ccc21 [Compound 415] 319

Answer with the recorded AC50 for the compound listed here: CS(=O)(=O)c1ccc(OCCN2CCC3(CC2)C(=O)Nc2ccc(Br)cc23)cc1 [Compound 72] 252

// data source = patent US12344610B2
